Attribute: growth inhibition
# Method Description: OD615 S. cerevisiae growth inhibition, permissive medium, pilot counter-assay, permissive growth control for S. cerevisiae lifespan shortening project (AID 705)
# Condition Details: OD615, 24 h, at 10 µM, active compounds read high
Calls of active or inactive are those of the source.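 How the source made its calls: active means growth inhibition above 25% in both replicates, a cutoff set 3 SD above the mean; inconclusive means above 25% in only one replicate; inactive means the rest.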

Here is how some molecules turned out for growth inhibition.
CC1CCCN(c2ncnc3c2cnn3-c2ccc(Cl)cc2)C1 (stereo not drawn) ... -6.17% (inactive)
COc1ccc(Br)cc1/C=N/n1c(C)nnc1C ... -14% (inactive)

Next up:
State the recorded growth inhibition for this entry: Cc1c(Br)cc(C(=O)NCCCN2CCOCC2)c(C)c1C -0.405% (inactive)
